# assay_name: Binding affinity to chymotrypsin-like activity of 20S proteasome
recorded_endpoint: Ki (nM)
A number alone suffices; assume nM.

q: Looking for the measured Ki of CC(C)C[C@H](NC(=O)[C@H](Cc1ccccc1)NC(=O)c1cnccn1)B(O)O , can you help?
a: 0.55

----------
# target_or_system: Tissue-type plasminogen activator (Homo sapiens) (UniProt P00750)
# Sequence (P00750 36-562 limits assumed): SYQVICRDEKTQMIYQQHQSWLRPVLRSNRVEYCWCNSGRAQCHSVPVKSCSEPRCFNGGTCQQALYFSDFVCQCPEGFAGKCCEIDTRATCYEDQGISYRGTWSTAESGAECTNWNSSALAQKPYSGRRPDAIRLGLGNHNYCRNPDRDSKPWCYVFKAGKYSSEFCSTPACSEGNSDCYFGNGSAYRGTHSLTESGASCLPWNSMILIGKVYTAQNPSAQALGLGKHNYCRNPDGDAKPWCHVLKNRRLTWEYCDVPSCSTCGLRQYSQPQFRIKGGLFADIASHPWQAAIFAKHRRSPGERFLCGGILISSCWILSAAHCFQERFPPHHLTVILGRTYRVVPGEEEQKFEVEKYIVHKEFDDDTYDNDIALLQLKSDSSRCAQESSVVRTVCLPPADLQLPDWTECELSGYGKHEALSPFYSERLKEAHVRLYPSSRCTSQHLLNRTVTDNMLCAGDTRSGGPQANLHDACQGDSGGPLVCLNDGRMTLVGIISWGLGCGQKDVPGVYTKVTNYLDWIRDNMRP
# assay_name: Inhibition of tissue plasminogen activator at 100 uM
The source made the active and inactive calls. The rule behind the calls is not given here.
recorded_endpoint: inhibition

q: Looking for the measured inhibition of COc1ccc(CNC(=O)[C@@H](NC(=O)[C@H](Cc2cc(OC)c(OC)c(OC)c2)NC(=O)Cc2cccc(Oc3ccccc3)c2)C(C)C)c(O)c1 , can you help?
a: Active

q: Looking for the measured inhibition of C[C@@H](O)[C@H](NC(=O)c1ccc(OCc2ccccc2)cc1)C(=O)N[C@@H](CCc1ccccc1)C(=O)NCc1ccccc1 , can you help?
a: Active

q: Looking for the measured inhibition of Cc1ccc(CNC(=O)[C@H](CCc2ccccc2)NC(=O)[C@H](CCc2ccccc2)NC(=O)[C@H](CCc2ccccc2)NC(=O)c2cnc(C)cn2)cc1 , can you help?
a: Active
